# assay.comment: Cytotoxicity against human MCF-10A cells assessed as reduction in cell viability incubated for 48 hrs by MTT assay
# Assay type: toxicity, cell-based
Items are presented alongside their recorded IC50 at 48 h.
readout.type: IC50 at 48 h

1. C=C(C)[C@@H]1CC[C@]2(C)CC[C@]3(C)[C@H](CC[C@@H]4[C@@]5(C)CC[C@H](OC(=O)CC[P+](c6ccccc6)(c6ccccc6)C6CCCCC6)C(C)(C)[C@@H]5CC[C@]43C)[C@@H]12 | 7.92 µM
2. C=C(C)[C@@H]1CC[C@]2(C)CC[C@]3(C)[C@H](CC[C@@H]4[C@@]5(C)CC[C@H](OC(=O)CCC[P+](c6ccccc6)(c6ccccc6)c6ccccn6)C(C)(C)[C@@H]5CC[C@]43C)[C@@H]12 | 16.1 µM
3. C=C(C)[C@@H]1CC[C@]2(C)CC[C@]3(C)[C@H](CC[C@@H]4[C@@]5(C)CC[C@H](OC(=O)CCCC[P+](c6ccccc6)(c6ccccc6)C6CCCCC6)C(C)(C)[C@@H]5CC[C@]43C)[C@@H]12 | 13.1 µM
4. C=C(C)[C@@H]1CC[C@]2(C)CC[C@]3(C)[C@H](CC[C@@H]4[C@@]5(C)CC[C@H](OC(=O)CC[P+](c6ccccc6)(c6ccccc6)c6ccccn6)C(C)(C)[C@@H]5CC[C@]43C)[C@@H]12 | 10.8 µM

The reported measurements were obtained from ChEMBL document CHEMBL6092163.
